Value source: paper PMC7018653

experiment: in vitro; settings: Klebsiella pneumoniae, not told, pH 7, Outer membrane permeability coefficients (nm/s), KP3800; discrete assay; average ± SD, three replicates (Table S2)
measurement kind: Papp

QUERY: # query: Papp of entry CC(C)(O/N=C(\C(=O)N[C@@H]1C(=O)N2C(C(=O)[O-])=C(C[n+]3ccccc3)CS[C@H]12)c1csc(N)n1)C(=O)O
RESULT: < 0.3 ×10⁻⁶ cm/s

====

assay: in vitro; details: Enterobacter cloacae, not told, pH 7, Avg OM permeability coefficient (nm/s) ± SD, Cassette E. cloacae, efflux: with 25 mg/liter PAβN; two biological replicates
For each entry below, report its Papp value.
One number for each entry, in ×10⁻⁶ cm/s.

C[C@@H](O)[C@H]1C(=O)N2C(C(=O)O)=C(SCCN=CN)C[C@H]12 [Imipenem, imipenem] :: 393

Attention now turns to another entry.
QUERY: # query: Papp of entry C[C@@H](O)[C@H]1C(=O)N2C(C(=O)O)=C(S[C@@H]3CN[C@H](C(=O)N(C)C)C3)[C@H](C)[C@H]12 [Meropenem, meropenem]
RESULT: 40.2

====

For each entry below, report its Papp value.
assay: in vitro; conditions: Klebsiella pneumoniae, not told, pH 7, Avg OM permeability coefficient (nm/s) ± SD, Cassette K. pneumoniae; three biological replicates

Consider the reported Papp for these molecules:
CC(C)(O/N=C(\C(=O)N[C@@H]1C(=O)N2C(C(=O)[O-])=C(C[n+]3ccccc3)CS[C@H]12)c1csc(N)n1)C(=O)O :: < 0.3 ×10⁻⁶ cm/s
C[C@H]1[C@H](NC(=O)/C(=N\OC(C)(C)C(=O)O)c2csc(N)n2)C(=O)N1S(=O)(=O)O :: < 0.3 ×10⁻⁶ cm/s
C[C@@H](O)[C@H]1C(=O)N2C(C(=O)O)=C(SCCN=CN)C[C@H]12 :: 90.7 ×10⁻⁶ cm/s

Count: 2. Required value per item: Papp.
1. C[C@@H](O)[C@H]1C(=O)N2C(C(=O)O)=C(S[C@@H]3CN[C@H](C(=O)N(C)C)C3)[C@H](C)[C@H]12
2. CO/N=C(\C(=O)N[C@@H]1C(=O)N2C(C(=O)[O-])=C(C[N+]3(C)CCCC3)CS[C@H]12)c1csc(N)n1 [Cefepime, cefepime]

RESULT:
9.07 ×10⁻⁶ cm/s
< 0.3 ×10⁻⁶ cm/s

====

assay: in vitro; conditions: Klebsiella pneumoniae, not told, pH 7, permeability coefficient, KP3800; degradation too slow to be reliably determined in intact bacteria; 'likely'
measurement kind: Papp

QUERY: # query: Papp of entry CC(C)(O/N=C(\C(=O)N[C@@H]1C(=O)N2C(C(=O)[O-])=C(C[n+]3ccccc3)CS[C@H]12)c1csc(N)n1)C(=O)O
RESULT: < 0.3 ×10⁻⁶ cm/s

====

For each entry below, report its Papp value.
test: in vitro; details: Klebsiella pneumoniae, not told, pH 7, Avg OM permeability coefficient (nm/s) ± SD, Discrete K. pneumoniae; three biological replicates
Give bare numbers, in nm/s.

Consider the reported Papp for these molecules:
C[C@H]1[C@H](NC(=O)/C(=N\OC(C)(C)C(=O)O)c2csc(N)n2)C(=O)N1S(=O)(=O)O :: 8.64
C[C@@H](O)[C@H]1C(=O)N2C(C(=O)O)=C(S[C@@H]3CN[C@H](C(=O)N(C)C)C3)[C@H](C)[C@H]12 :: 83.3
C[C@@H](O)[C@H]1C(=O)N2C(C(=O)O)=C(SCCN=CN)C[C@H]12 :: 2040

Attention now turns to another entry.
QUERY: # query: Papp of entry CO/N=C(\C(=O)N[C@@H]1C(=O)N2C(C(=O)[O-])=C(C[N+]3(C)CCCC3)CS[C@H]12)c1csc(N)n1 [Cefepime, cefepime]
RESULT: 13.6
